Data origin: PubChem BioAssay (NCI)

TGI values for the molecules below.
Tested on: 786-0 renal
Assay: NCI tumour cell line growth inhibition, 48 h

# Molecule, TGI
rows = [
    ("COC(=O)CCC1=C(CC(=O)OC)C(C)(OC)N=C1NC(=O)OCc1ccccc1 (stereo not given)", "> 100 µM"),
]

*Q* Provide one value: measured TGI of `NS(=O)(=O)c1ccc(-n2nc3c(c2-c2ccc(Cl)cc2)Cc2ccccc2-3)cc1`
*A* 30.7 µM

*Q* Provide one value: measured TGI of O=C1/C(=C\c2cccc(Oc3ccccc3)c2)SC(c2ccccc2)N1c1ccccc1 (stereo not given)
*A* > 100 µM

*Q* Provide one value: measured TGI of O=C(O)C(O)C(O)C(=O)O (stereo not given)
*A* > 100 µM

*Q* Provide one value: measured TGI of CC(=O)OC12C3C4C1C1C2C3C41OC(C)=O (stereo not given)
*A* > 100 µM

====

System: NCI-H226 lung
Experiment: NCI tumour cell line growth inhibition, 48 h
TGI values for the compounds below.

Here's what some known entries look like.
# Compound, TGI
rows = [
    ("COC(=O)C1C(O)CCC2CN3CCc4c([nH]c5ccccc45)C3CC21 (stereo unspecified)", "> 100 µM"),
    ("O=C(NCCN1CCOCC1)c1cn2c(ccc3sc4ccccc4c(=O)c32)n1", "> 100 µM"),
]

*Q* Provide one value: measured TGI of `CN(C)CCNC(=O)c1ccc(NCCCN(C)CCCNc2ccc(C(=O)NCCN(C)C)c3[nH]c4ccccc4c(=O)c23)c2c(=O)c3ccccc3[nH]c12`
*A* 0.609 µM

*Q* Provide one value: measured TGI of `CCOC(=O)Nc1nc2ccc(OC)cc2s1`
*A* > 100 µM

*Q* Provide one value: measured TGI of CC(=O)Nc1ccc(C(=O)NN2C(=O)C(Cl)/C2=C/c2ccco2)cc1 (stereo unspecified)
*A* > 100 µM

*Q* Provide one value: measured TGI of CC(C)(C)OC(=O)NC1CC2(C=C(Br)C(=O)C(Br)=C2)OC1=O (stereo unspecified)
*A* 40.6 µM

====

Test system: HCT-116 colon
Assay: NCI tumour cell line growth inhibition, 48 h
Endpoint label: TGI

Here's what some known entries look like.
# Compound, TGI
measured = [
    ("O=C(Cc1nc2ccccc2c(=O)n1-c1ccccc1Cl)c1ccncc1", "> 100 µM"),
    ("CS(=O)(=O)OCCN(CCOS(C)(=O)=O)c1ccc(C=Nc2cccc(Cl)c2)cc1", "> 100 µM"),
    ("Brc1ccc(C[P+]2(c3ccccc3)CCCCC2)cc1", "> 100 µM"),
]

*Q* Provide one value: measured TGI of `c1ccc2c(c1)c1c(n2CCOCCN2CCCC2)CCCC1`
*A* 32.5 µM

*Q* Provide one value: measured TGI of `O=C(NCCN1CCOCC1)c1cn2c(ccc3sc4ccccc4c(=O)c32)n1`
*A* 29 µM

====

Test system: ACHN renal
Assay: NCI tumour cell line growth inhibition, 48 h
TGI values for the compounds below.

# Compound, Measured value
records = [
    ("COc1ccc(C2OC(=O)c3ccc4ccccc4c32)c(C)c1 (configuration not stated)", "> 100 µM"),
    ("O=C1C(Br)=C(c2ccccc2)O/C1=C/C(=O)c1ccc(Br)cc1", "> 100 µM"),
    ("CCOC(=O)c1c(N=P(c2ccccc2)(c2ccccc2)c2ccccc2)nnc(-c2ccccc2)c1-c1ccccc1", "> 100 µM"),
    ("COc1ccc(-n2c(N)c(C#N)[nH]c2=O)cc1", "> 10 µM"),
]

Now let's try a different one.
*Q* Provide one value: measured TGI of COC(=O)CCC1=C(CC(=O)OC)C(C)(OC)N=C1NC(=O)OCc1ccccc1 (configuration not stated)
*A* > 100 µM
